# Tested on: Candida albicans
# experiment.notes: Antifungal activity against fluconazole resistant Candida albicans CaR assessed as inhibition of fungal growth by NCCLS protocol based method
# Assay type: functional
observation.type: MIC

[
  {
    "compound": "OC(Cn1cncn1)(Cn1cncn1)c1ccc(F)cc1F",
    "MIC": "> 64 µg/mL"
  },
  {
    "compound": "Fc1cccc(-c2ccc(C3=NC(Cn4cncn4)(c4cccc(F)c4)CO3)cc2)c1 (stereo not drawn)",
    "MIC": "> 64 µg/mL"
  }
]

Okay, now this compound:
### Prompt Query the reported MIC for Candida albicans; item: Fc1cccc(C2(Cn3cncn3)COC(c3ccc(-c4ccccc4F)cc3)=N2)c1 (stereo not drawn)
### Response > 64 µg/mL

###

# Tested on: Candida tropicalis
# experiment.notes: Antifungal activity against Candida tropicalis GIM2.183 assessed as inhibition of fungal growth by NCCLS protocol based method
# Assay type: functional
observation.type: MIC

[
  {
    "compound": "Fc1cc(F)cc(-c2ccc(C3=NC(Cn4cncn4)(c4ccccc4)CO3)cc2)c1 (stereo not drawn)",
    "MIC": "> 16 µg/mL"
  },
  {
    "compound": "CC(C)C1OC(c2ccc(-c3ccccc3)cc2)=NC1Cn1ccnc1 (stereo not drawn)",
    "MIC": "< 0.125 µg/mL"
  }
]

Okay, now this compound:
### Prompt Item N#Cc1ccc(-c2ccc(C3=NC(Cn4cncn4)(c4ccccc4)CO3)cc2)cc1 (stereo not drawn) has what recorded MIC?
### Response > 16 µg/mL
